Numbers sourced from the Human Domainome abundance scans (Beltran et al. 2025).

B1: Pituitary-specific positive transcription factor 1, residues 130 to 198; numbered along this chain, P28069 (parent)
chain: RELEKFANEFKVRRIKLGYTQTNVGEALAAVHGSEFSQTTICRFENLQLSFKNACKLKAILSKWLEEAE

Variants of: B1
assay comment: abundance fitness (aPCA) (normalised: wild type 0, dead -1); higher = more abundant; growth selection in yeast, the domain comes from the species named
test settings: Homo sapiens
Below is a list of entries, each paired with its recorded abundance fitness value.
Could you respond with only the numeric value?

# mutation annotation, abundance fitness
records = [
    ("T20S", -0.044),
]

abundance fitness measured on E45H = -1.17

Memo: L61F , reported abundance fitness: -0.536

Briefly, abundance fitness measured for L49S : -0.568

abundance fitness for T22Y is -0.392

What the record says about G25W : abundance fitness is -0.001

# abundance fitness of K56R = 0.005

Per the records, this variant ( W64V ) has abundance fitness equal to -0.966

// field: abundance fitness; key: S37Q ; value = -0.736

abundance fitness for G25C is 0.005

GET /value?item= G33A &field=abundance fitness returns -0.555

The variant listed as E67H has a reported abundance fitness of -0.34
